The values you see were collected from patent US20200079851A1.

- MEASURED TARGET: T1, human LILRB4 (human, UniProt Q8NHJ6 22-259, limits assumed)
- T1 construct: also called leukocyte immunoglobulin-like receptor subfamily B member 4
- EXPERIMENT: ELISA
Readings of pEC50 for the listed binders
pEC50 here: minus log base 10 of the concentration, concentration in moles per litre.

anti-LILRB4 rabbit monoclonal antibody #129 (antibody, V domains shown) VH: EQSVKESGGGLVKPGASLTLTCTASGFSFSSSYHMCWVRQAPGKGLEWIGCIATGYGSTYYASWAKGRFTISKTSSTTVTLQVPSLTAADTATCFCARGYYRYTSDSYGYFDLWGPGTLVTISS VL: ELVLTQTASPVSAAVGGTVTVNCQASQSISSGYLSWYQQKPGQPPKLLIYYASRLASGVPSRFSGSGSGTEYTLTISGVQCDDAATYYCLYVSYDGTTTDNAFGGGTEVEIK: 10.05

Kindly consider the entry below.
Which pEC50 value belongs to anti-LILRB4 rabbit monoclonal antibody #128-3 (antibody, V domains shown) VH: EQSLEESGGDLVTPGASLTLTCKASGIDFSNHYYIYWVRQAPGKGLEWIGCIFSGDSASTYYASWAKGRFTISKSSSPTVTLQMTSLTAADTATYFCARGMSTNDWASDLWGPGTMVTVSS VL: ELVMTQTPASVSAAVGGTVTINCQASESINSIYLAWYQQKPGQRPKLLIYRASTLASGVSSRFKGSASGTGFTLTISDLECADAATYYCQQSYDWGDVENTFGGGTEVEIK ?
9.74
